Tested on: MS2 coat protein
Assay: apparent KD of MS2 coat protein; designed switch direction (-1 OFF switch, 1 ON switch): -1; higher = weaker reporter binding
Details: input ligand: none
Reported apparent KD of MS2 coat protein values are given for each entry in this list.
Enter your answer as a number in nM; do not include the unit.

Worked examples follow.
{"columns": ["SEQUENCE CHAIN", "RECORDED MEASUREMENT"],
 "data": [
  ["AGAGCACAUGAGGAUCACCCAUGUCAGGAUAUCGACUGAACAGCUUCGGCUGUUCAGUCGAGAAGGGACAAUUA [Brourdxlusion 7 - Jieux - Exclusion 1] (Eterna round: R97, puzzle: Exclusion 1)", 35],
  ["CCUUAGUUAGGAUAUAUUAAGGCCUCUGUGAGCGCAGGGCAAUAGAAGGAACAUGAGGAUCACCCAUGUAUGGA [Eternabot (L2) Solution 98] (Eterna round: R97, puzzle: Exclusion 4)", 29.7],
  ["UAUUUGCAAGCGAGAUCCCACAUGAGGAUCACCCAUGUUCUUGGAAAGUACAGAAUUACUGUACAAGCUCGUCUUAU [Winner reversed engineered 32] (Eterna round: R97, puzzle: Sensor, turn-off variant 1)", 25.7]
]}

Kindly review the next sequence as well.
Exercise: Item: GGAUAGUGAGGAUAUACCCAGAUUGAUGGACACGUCAGCGGGUAGAAGGCACAUGAGGAUCACCCAUGUGGCCU [Eternabot (L1) Solution 22] (Eterna round: R97, puzzle: Exclusion 4) Test system: MS2 coat protein Read-out: apparent KD of MS2 coat protein Value: ?
Solution: 14.1

---

Tested on: MS2 coat protein
Assay: apparent KD of MS2 coat protein; designed switch direction (-1 OFF switch, 1 ON switch): -1; higher = weaker reporter binding
Settings: Eterna round: R95; input ligand: microRNA oligo, concentration not stated
Reported apparent KD of MS2 coat protein values are given for each entry in this list.
Please provide the amount together with its unit, number first.

{"columns": ["SEQUENCE CHAIN", "RECORDED MEASUREMENT"],
 "data": [
  ["GGGUUACAUGAGGAUCACCCAUGUGAGGAUAUGAUACUAUGUACUUCGGUACAUAGUAUCAGAAGGCACAUCCC [Ex1-3: 20] (puzzle: Exclusion 1)", "31.4 nM"],
  ["CUGGUCCGAGGAUAUAUUAUGUGAUACAUGAGGAUCACCCAUGUUAUAUGAUGGAUGUUAGUAGAAGGCGGACUAG [JL-ex5-3.21] (puzzle: Exclusion 5)", "57.3 nM"],
  ["AAACCGCAUGUCAGGAUAUCCAGUCCGACUAGCUAGGAGAAGGGACAUGAGGAUCACCCAUGUUUCAUGGCUCG [Anveonat] (puzzle: Brourd's mod of Exclusion 4)", "19.6 nM"],
  ["GGUACUAUCACCUGAGUGGUAGUGCAAUAAGCUUGUGAUACAUGAGGAUCACCCAUGUCCUCAUUUGCUCGUCUUAU [JL-sv3-2.26 JL mod] (puzzle: Sensor v3, turn-off variant 2)", "516 nM"],
  ["GAUGAGAGAGGAUAUACAUGAGGAUCACCCAUGUAAUUUUCGGACAUGGAAGCCUGAUGUAGAAGGCUCGCAUG [Usmaercele] (puzzle: Exclusion 3)", "76.3 nM"],
  ["UAUGUUGUUGUGAGGAUAUACUUAGUUUGACCGUAGUAGAAGGCACAUGAGGAUCACCCAUGUAGAUUUUUGGU [JR_BME4_Sub007] (puzzle: Brourd's mod of Exclusion 4)", "9.49 nM"],
  ["AGUACUAACACGUUAGUGUUAGUACAAUAAGCUUGUGAAACAUGAGGAUCACCCAUGUCCUCAUAAGCUCGUCUUAU [salish99_TOv2_r3_056] (puzzle: Sensor v3, turn-off variant 2)", "645 nM"],
  ["AUAAGCUUUUAUAUCCUUAACAUGAGGAUCACCCAUGUUCGUCUUAUGAUGGUCUGAUCCCUGAGGAUCGGACCGUU [JL-sv1-2.04 Brourd Mod] (puzzle: Sensor v3, turn-off variant 1)", "76.5 nM"],
  ["CCUAAACAUGAGGAUCACCCAUGUGAGGAUAUGAUGCAGCAGUGGUCUACGCUGUGCAUCAGAAGGUACAUGGU (puzzle: Exclusion 1)", "73.4 nM"],
  ["AAAAAGGUAGGAUAUACGAAAAAAAAGGGUAGAAAAAAAACACAUGAGGAUCACCCAUGUAGAAGGACCAAAAC [salish99_ex2_r3_046] (puzzle: Exclusion 2)", "33.4 nM"]
]}

Exercise: Fill in the blank: the reported apparent KD of MS2 coat protein of GGCCGAGAACAGCUCCACGCUACCCUCGGCCGCUCAUUUACAUGAGGAUCACCCAUGUUUUUUGCUUGUCUUGUUUC [Xeisrarabi] (puzzle: Sensor v3, turn-off variant 2) is ____.
Solution: 94.1 nM

Exercise: Fill in the blank: the reported apparent KD of MS2 coat protein of GGCGACCACCUCGUGCACUACAUGAGGAUCACCCAUGUUUUUCGCUCGUCUUAUGCGCCAACCUCCCAAACACUAAG [Gelaesxe] (puzzle: Sensor v3, turn-off variant 1) is ____.
Solution: 103 nM

Exercise: Fill in the blank: the reported apparent KD of MS2 coat protein of AGUACUAUGCGUGCUGACAUGCGUAGUGCAGCAGGUGUUACAUGAGGAUCACCCAUGUCCUCAUUUGCUCGUCUUAA [Mat - Sensor v3 - Turn-off var 2 - D16] (puzzle: Sensor v3, turn-off variant 2) is ____.
Solution: 115 nM

Exercise: Fill in the blank: the reported apparent KD of MS2 coat protein of AAAAGGUCAGGAUAUCCAAGAAAAGAAAAGAAAAGAAAAGAGGAGAAGGGACAUGAGGAUCACCCAUGUAAAAG [Default title] (puzzle: Exclusion 4) is ____.
Solution: 42.7 nM

Exercise: Fill in the blank: the reported apparent KD of MS2 coat protein of AGUGUGUUAGGAUAUCGCAUAUGCUGGAGGAGGUGGAGUUACGAGAAGGAACAUGAGGAUCACCCAUGUAGGAC [JR_Exclu4_Sub050] (puzzle: Exclusion 4) is ____.
Solution: 25.7 nM

Exercise: Fill in the blank: the reported apparent KD of MS2 coat protein of GUAAAGUGAGGAUAUGGUAAUUUAAUUAUUAAUUAAUUAAUCCAGAAGGCACAUGAGGAUCACCCAUGUAAAUG [Mat - Exclusion 4 - D90] (puzzle: Exclusion 4) is ____.
Solution: 31.6 nM

Exercise: Fill in the blank: the reported apparent KD of MS2 coat protein of AGAGAGUCAGGAUAUCGAAGGUAGAGAAAAGGAGAGUGGUACGAGAAGGGACAUGAGGAUCACCCAUGUAGGUG [JR_Exclusion4)Sub013] (puzzle: Exclusion 4) is ____.
Solution: 431 nM

Exercise: Fill in the blank: the reported apparent KD of MS2 coat protein of GGUUGGCGAGGAUAUACAUGAGGAUCACCCAUGUGAGAGAAAGAAGUGAGGAAGAAUAGUAGAAGGCGCUGACG [salish99_ex3_r3_056] (puzzle: Exclusion 3) is ____.
Solution: 56.1 nM

Exercise: Fill in the blank: the reported apparent KD of MS2 coat protein of UGUGCGUAUGUGAGGAUAUGCUGGUCCUUGGAUCGGCAGAAGGCACAUGAGGAUCACCCAUGUGGUGUCGUUCC [salish99_Bmod_ex4_095] (puzzle: Brourd's mod of Exclusion 4) is ____.
Solution: 102 nM

Exercise: Fill in the blank: the reported apparent KD of MS2 coat protein of GAUCAACAUGAGGAUCACCCAUGUGAGGAUAUGUAUCAUAGAUCUUCGGAUCUAUGAUACAGAAGGCAUGUAGG [Ex1-3: 100] (puzzle: Exclusion 1) is ____.
Solution: 74.2 nM

Exercise: Fill in the blank: the reported apparent KD of MS2 coat protein of GUGUAGAUAGGAUAUGCAAGAGUCUAGCGAAGCUAGAUUCUACAUGAGGAUCACCCAUGUAGAAGGGUCUACAC [Fiskers Ex 2 - 29] (puzzle: Exclusion 2) is ____.
Solution: 17.3 nM

---

System: MS2 coat protein
Experiment: apparent KD of MS2 coat protein; higher = weaker reporter binding
Conditions: Eterna round: R107; input ligand: theophylline 2 mM
Reported apparent KD of MS2 coat protein values are given for each entry in this list.
Enter your answer as a number in nM; do not include the unit.

Worked examples follow.
{"columns": ["SEQUENCE CHAIN", "apparent KD of MS2 coat protein (nM)"],
 "data": [
  ["GUAUAUAUGCGAAGGAGCGGGAAAUAUAUAUAUAUAAUCCUAACAUGAGGAUCACCCAUGUCCCAGGUAGGUCGCGCAUAUAUAU [12.B]", 83.6],
  ["CGAAUAUAGACGGCCGCCACUCUACAAACAUGAGGAUCACCCAUGUUCACAUAGUGGAAACACAUGAGGACCGGGUCAUAGGCAU [#18 Same State - Tryptophan B]", 21.3]
]}

Exercise: Fill in the blank: the reported apparent KD of MS2 coat protein of UAACAUGAGGAUCACCCAUGUAAACUAAGUCGAGGACCGGUACGGCCGCCACUCGAAAUUGAAGAAUUGGCGGAAAAUGUAUGUU [JR_ExcTryptoA_Sub018] is ____.
Solution: 13.3
